# Test system: P388 (mouse leukemia)
# Protocol Notes: Antiproliferative assay in vitro (MTT)
# Format: cell-based
# Assay Setup: Mus musculus, P388, read-out: Cytotoxic activity IC50, Murine P388
Hi! Could you tag entries with IC50 below 30 µg/mL as t, and those at or above as f? Much appreciated.

Compound: C#CC(=O)OC[C@]12CCC(C(=C)C)C1C1CCC3[C@@]4(C)CC[C@H](OC(=O)C#C)C(C)(C)C4CC[C@@]3(C)[C@]1(C)CC2 (stereo partly shown)
Discrete Label: f
--
Compound: C=C(C)C1CC[C@]2(COC(=O)OCC#CC)CC[C@]3(C)C(CCC4[C@@]5(C)CC[C@H](O)C(C)(C)C5CC[C@]43C)C12 (stereo partly shown)
Discrete Label: t
--
Compound: C=C(C)C1CC[C@]2(COC(=O)OCC)CC[C@]3(C)C(CCC4[C@@]5(C)CC[C@H](O)C(C)(C)C5CC[C@]43C)C12 (stereo partly shown)
Discrete Label: t
--
Compound: C=C(C)C1CC[C@]2(COC(C)=O)CC[C@]3(C)C(CCC4[C@@]5(C)CC[C@H](OC(C)=O)C(C)(C)C5CC[C@]43C)C12 (stereo partly shown)
Discrete Label: f
--
Compound: C=C(C)[C@@H]1CC[C@]2(CO)CC[C@]3(C)[C@H](CC[C@@H]4[C@@]5(C)CC[C@H](O)C(C)(C)[C@@H]5CC[C@]43C)[C@@H]12 [Compound 1, lup-20(29)-ene-3β,28-diol, reference compound]
Discrete Label: t
--
Compound: C=C(C)C1CC[C@]2(COC(=O)CC)CC[C@]3(C)C(CCC4[C@@]5(C)CC[C@H](OC(=O)CC)C(C)(C)C5CC[C@]43C)C12 (stereo partly shown)
Discrete Label: f
--
Compound: C#CCOC(=O)OC[C@]12CCC(C(=C)C)C1C1CCC3[C@@]4(C)CC[C@H](OC(=O)OCC#C)C(C)(C)C4CC[C@@]3(C)[C@]1(C)CC2 (stereo partly shown)
Discrete Label: f
--
Compound: C#CCOC(=O)OC[C@]12CCC(C(=C)C)C1C1CCC3[C@@]4(C)CC[C@H](O)C(C)(C)C4CC[C@@]3(C)[C@]1(C)CC2 (stereo partly shown)
Discrete Label: t
--
Compound: C#CCCOC(=O)O[C@H]1CC[C@@]2(C)C(CC[C@]3(C)C2CCC2C4C(C(=C)C)CC[C@]4(COC(C)=O)CC[C@]23C)C1(C)C (stereo partly shown)
Discrete Label: f

Could you now look at the following compound, please?
Exercise: Consider the compound C=C(C)C1CC[C@]2(COC(=O)OCC)CC[C@]3(C)C(CCC4[C@@]5(C)CC[C@H](OC(=O)OCC)C(C)(C)C5CC[C@]43C)C12 (stereo partly shown) [Compound 4d, 3,28-O,O'-Di(ethoxycarbonyl)betulin] . Is its IC50 strictly less than 30 µg/mL?
Solution: f

---

# Protocol Notes: Antiproliferative assay in vitro (SRB)
# Type: cell-based, mouse
# Assay Setup: mouse; Balb3T3 normal fibroblasts; SRB; Neg = negative in the concentration used; read-out: Cytotoxic activity IC50, Murine Balb3T3
Value Kind: IC50 (mg/L)
A number alone suffices; assume mg/L.

Exercise: Quick check: IC50 of C=C(C)[C@@H]1CC[C@]2(CO)CC[C@]3(C)[C@H](CC[C@@H]4[C@@]5(C)CC[C@H](O)C(C)(C)[C@@H]5CC[C@]43C)[C@@H]12 [Compound 1, lup-20(29)-ene-3β,28-diol, reference compound] ?
Solution: 47.3

---

# System: CCRF/CEM (human leukemia)
# Protocol Notes: Antiproliferative assay in vitro (MTT)
# Type: cell-based
# Description: Cytotoxic activities of all newly synthesized compounds including betulin (1) were tested in SRB or MTT (in the case of leukemia cells) assay for their antiproliferative activity in vitro against three human cancer cell lines: SW707 (colorectal adenocarcinoma), CCRF/CEM (leukemia), T47D (breast cancer), and murine leukemia P388 as well as Balb3T3 normal fibroblasts cell lines. […] A value of less than 4 μg/mL was considered as an antiproliferative activity criterion for synthetic compounds [31]. […]

Compound: C#CCOC(=O)O[C@H]1CC[C@@]2(C)C(CC[C@]3(C)C2CCC2C4C(C(=C)C)CC[C@]4(COC(C)=O)CC[C@]23C)C1(C)C (stereo partly drawn)
Cytotoxic activity IC50, Human CCRF/CEM: Neg

Compound: C#CCCOC(=O)O[C@H]1CC[C@@]2(C)C(CC[C@]3(C)C2CCC2C4C(C(=C)C)CC[C@]4(COC(C)=O)CC[C@]23C)C1(C)C (stereo partly drawn)
Cytotoxic activity IC50, Human CCRF/CEM: Neg

Compound: C=C(C)C1CC[C@]2(COC(C)=O)CC[C@]3(C)C(CCC4[C@@]5(C)CC[C@H](OC(=O)OCC)C(C)(C)C5CC[C@]43C)C12 (stereo partly drawn) [Compound 8d, 28-O-Acetyl-3-O'-(ethoxycarbonyl)betulin]
Cytotoxic activity IC50, Human CCRF/CEM: Neg

Sourced from paper PMC6270304
